Kindly state log10 EC50 for each of the entries shown.
Target: human GLP-1R (Homo sapiens)
Sequence (P43220 24-463): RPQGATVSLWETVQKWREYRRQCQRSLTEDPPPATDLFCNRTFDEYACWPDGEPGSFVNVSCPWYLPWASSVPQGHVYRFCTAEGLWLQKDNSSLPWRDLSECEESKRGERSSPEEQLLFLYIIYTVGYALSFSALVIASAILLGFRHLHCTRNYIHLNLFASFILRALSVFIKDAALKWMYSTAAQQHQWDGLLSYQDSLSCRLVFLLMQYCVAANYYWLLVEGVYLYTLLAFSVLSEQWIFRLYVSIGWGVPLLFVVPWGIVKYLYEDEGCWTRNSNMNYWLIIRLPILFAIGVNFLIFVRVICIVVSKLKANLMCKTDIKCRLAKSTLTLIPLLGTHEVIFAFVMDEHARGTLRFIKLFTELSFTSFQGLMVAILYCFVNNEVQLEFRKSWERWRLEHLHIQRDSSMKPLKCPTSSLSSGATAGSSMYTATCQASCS
Test: GLP-1R Cell Assay 1: cAMP Hunter CHO-K1 GLP1R Gs cell line, HitHunter cAMP assay
Format: cell-based
Conditions: Table 2; cAMP Hunter CHO-K1 GLP1R Gs cells; percent activity normalized to Exendin-4
The common logarithm of EC50 in nM is what is listed.

Looking up NC(=O)c1cnc(COc2cccc(N3CCN(Cc4nc5ccc(C(=O)O)cc5n4C[C@@H]4CCO4)CC3)n2)nc1 [Compound 81] , I found its log10 EC50 recorded as 2.32

Looking up N#Cc1cc(F)c2c(c1)CCC(c1cccc(N3CCN(Cc4nc5ccc(C(=O)O)cc5n4C[C@@H]4CCO4)CC3)n1)C2 (some centres unmarked) [Compound 4] , I found its log10 EC50 recorded as 0.66

Looking up O=C(O)c1ccc2nc(CN3CCC(n4ccc(OCc5nc6ccccc6s5)n4)CC3)n(C[C@@H]3CCO3)c2c1 [Compound 101] , I found its log10 EC50 recorded as 1.46

Looking up O=C(O)c1ccc2nc(CN3CCN(c4cccc(OCc5nc6ccccc6s5)n4)CC3)n(C[C@@H]3CCO3)c2c1 [Compound 69] , I found its log10 EC50 recorded as -0.40

Looking up N#Cc1ccc(Cn2ccc3ccc(N4CCN(Cc5nc6ccc(C(=O)O)cc6n5C[C@@H]5CCO5)CC4)nc32)c(F)c1 [Compound 29] , I found its log10 EC50 recorded as 1.21

Looking up CC1(COc2cccc(N3CCN(Cc4nc5ccc(C(=O)O)cc5n4C[C@@H]4CCO4)CC3)n2)CC(F)(F)C1 [Compound 34] , I found its log10 EC50 recorded as 2.52

Looking up N#Cc1ccc(COc2cccc(N3CCN(Cc4nc5ccc(C(=O)O)cc5n4C[C@@H]4CCO4)CC3)n2)nc1 [Compound 62] , I found its log10 EC50 recorded as -0.07

Looking up Cn1cnc2cc(COc3cccc(N4CCN(Cc5nc6ccc(C(=O)O)cc6n5C[C@@H]5CCO5)CC4)n3)ccc21 [Compound 3] , I found its log10 EC50 recorded as 0.96

Looking up O=C(O)c1ccc2nc(CN3CCN(c4cccc(OCc5ccc6ncoc6c5)n4)CC3)n(C[C@@H]3CCO3)c2c1 [Compound 75] , I found its log10 EC50 recorded as 0.34

Looking up O=C(O)c1ccc2nc(CN3CCN(c4ccc5cnn(Cc6ccccc6)c5n4)CC3)n(C[C@@H]3CCO3)c2c1 [Compound 27] , I found its log10 EC50 recorded as 2.37

Looking up O=C(O)c1ccc2nc(CN3CCN(c4cccc(OCc5cccnc5)n4)CC3)n(C[C@@H]3CCO3)c2c1 [Compound 53] , I found its log10 EC50 recorded as 0.89

Looking up Cn1cnc2ccc(COc3cccc(N4CCN(Cc5nc6ccc(C(=O)O)cc6n5C[C@@H]5CCO5)CC4)n3)cc21 [Compound 72] , I found its log10 EC50 recorded as 0.66

Looking up O=C(O)c1ccc2nc(CN3CCN(c4cccc(OCC5CCC5)n4)CC3)n(C[C@@H]3CCO3)c2c1 [Compound 88] , I found its log10 EC50 recorded as 2.38

----------
Molecular target: human GLP-1R (Homo sapiens)
Experiment: GLP-1R Cell Assay 1: cAMP Hunter CHO-K1 GLP1R Gs cell line, HitHunter cAMP assay
Format: cell-based
Conditions: Table 3; cAMP Hunter CHO-K1 GLP1R Gs cells; percent activity normalized to Exendin-4
REPORTED ENDPOINT: log10(EC50) (log10 of the value in nM)
The common logarithm of EC50 in nM is what is listed.

Looking up N#Cc1ccc2c(c1)CCC[C@@H]2Oc1cccc(C2CCN(Cc3nc4ccc(C(=O)O)cc4n3C[C@@H]3CCO3)CC2)n1 (single isomer, unassigned) [Compound 146-P2] , I found its log10(EC50) recorded as 0.85

Looking up CCn1cncc1Cn1c(CN2CC[C@]3(c4cccc(N5CCc6cc(C#N)cc(F)c6C5)n4)C[C@@H]3C2)nc2ccc(C(=O)O)cc21 [Compound 184-P2] , I found its log10(EC50) recorded as -0.38

Looking up N#Cc1ccc(COc2cccc(N3CCN(Cc4nc5ccc(C(=O)O)cc5n4C[C@@H]4CCO4)CC3)c2)c(F)c1 , I found its log10(EC50) recorded as -0.05

Looking up N#Cc1cc(F)c2c(c1)CCN(c1cccc(C34CCN(Cc5nc6ccc(C(=O)O)cc6n5CC5CCO5)CC3C4)n1)C2 (stereo not shown) , I found its log10(EC50) recorded as 1.24

Looking up N#Cc1ccc(COc2ncccc2[C@@]23CCN(Cc4nc5ccc(C(=O)O)cc5n4CC4CCO4)C[C@@H]2C3)c(F)c1 (single isomer, unassigned) , I found its log10(EC50) recorded as 2.42

Looking up CCn1ccnc1Cn1c(CN2CC[C@]3(c4cccc(N5CCc6cc(C#N)cc(F)c6C5)n4)C[C@@H]3C2)nc2ccc(C(=O)O)cc21 [Compound 163-P2] , I found its log10(EC50) recorded as -0.38

Looking up O=C(O)c1ccc2nc(CN3CCC(c4cccc(OC5CCCc6ccccc65)n4)CC3)n(C[C@@H]3CCO3)c2c1 (stereo partly shown) , I found its log10(EC50) recorded as 2.48

Looking up CCn1ccnc1Cn1c(CN2CC[C@@]3(c4cccc(N5CCc6cc(C#N)cc(F)c6C5)n4)C[C@H]3C2)nc2ccc(C(=O)O)cc21 [Compound 163-P1] , I found its log10(EC50) recorded as -0.58

Looking up CCn1cncc1Cn1c(CN2CCC(c3cccc(OCc4nc5ccc(C#N)cc5s4)n3)CC2)nc2ccc(C(=O)O)cc21 , I found its log10(EC50) recorded as -1.60

Looking up N#Cc1ccc([C@H]2CCc3c(cccc3N3CCN(Cc4nc5ccc(C(=O)O)cc5n4C[C@@H]4CCO4)CC3)O2)c(F)c1 (single isomer, unassigned) [Compound 151-P1] , I found its log10(EC50) recorded as 2.42

----------
Target: human GLP-1R (Homo sapiens)
Experiment: GLP-1R Cell Assay 2: CHO-K1_hGLP-1Rlow_clone10 cells, LANCE Ultra cAMP TR-FRET assay
Assay type: cell-based
Parameters: expressed in transfected cells
Conditions: Table 3, percent activation relative to control GLP-1 peptide agonist
Decision: EC50 beneath 60 nM gives Condition met; EC50 meeting or exceeding 60 nM gives Condition not met.

Exam item: Identify whether the compound CCn1cncc1Cn1c(CN2CC[C@]3(c4nccc(N5CCc6cc(C#N)cc(F)c6C5)n4)C[C@@H]3C2)nc2ccc(C(=O)O)cc21 (single isomer, unassigned) [Compound 186-P2] records EC50 below 60 nM.
Marked response: Condition not met

Exam item: Identify whether the compound O=C(O)c1ccc2nc(CN3CCC(c4cccc(OCc5coc6c(C(F)(F)F)cccc56)n4)CC3)n(C[C@@H]3CCO3)c2c1 [Compound 175] records EC50 below 60 nM.
Marked response: Condition met

Exam item: Identify whether the compound CCn1cncc1Cn1c(CN2CC[C@]3(c4nccc(OCc5ccc(C#N)cc5F)n4)C[C@@H]3C2)nc2ccc(C(=O)O)cc21 [Compound 185-P2] records EC50 below 60 nM.
Marked response: Condition met

Exam item: Identify whether the compound N#Cc1cccc2c(COc3cccc(C4CCN(Cc5nc6ccc(C(=O)O)cc6n5C[C@@H]5CCO5)CC4)n3)csc12 [Compound 173] records EC50 below 60 nM.
Marked response: Condition met

Exam item: Identify whether the compound N#Cc1cccc2c(COc3cccc(C4CCN(Cc5nc6ccc(C(=O)O)cc6n5C[C@@H]5CCO5)CC4)n3)csc12 [Compound 187] records EC50 below 60 nM.
Marked response: Condition met

Exam item: Identify whether the compound CCn1cncc1Cn1c(CN2CCC(c3cccnc3OCc3ccc(C#N)cc3F)CC2)nc2ccc(C(=O)O)cc21 [Compound 169] records EC50 below 60 nM.
Marked response: Condition met

Exam item: Identify whether the compound O=C(O)c1ccc2nc(CN3CCC(c4cccc(OCc5csc6c(C(F)(F)F)cccc56)n4)CC3)n(C[C@@H]3CCO3)c2c1 [Compound 174] records EC50 below 60 nM.
Marked response: Condition not met

Exam item: Identify whether the compound O=C(O)c1ccc2nc(CN3CCC(c4cccc(OCc5nc(C6CC6)cs5)n4)CC3)n(C[C@@H]3CCO3)c2c1 [Compound 181] records EC50 below 60 nM.
Marked response: Condition met

Exam item: Identify whether the compound O=C(O)c1ccc2nc(CN3CCC(c4cccc(Oc5ccccc5)n4)CC3)n(C[C@@H]3CCO3)c2c1 [Compound 183] records EC50 below 60 nM.
Marked response: Condition not met

Exam item: Identify whether the compound CCn1cncc1Cn1c(CN2CCC(c3cccnc3OCc3ccc(C(N)=O)cc3F)CC2)nc2ccc(C(=O)O)cc21 [Compound 170] records EC50 below 60 nM.
Marked response: Condition not met

Exam item: Identify whether the compound N#Cc1cc(F)c2c(c1)CCN(c1cccc(C3CCN(Cc4nc5ccc(C(=O)O)cc5n4Cc4ncco4)CC3)n1)C2 [Compound 172] records EC50 below 60 nM.
Marked response: Condition not met

Exam item: Identify whether the compound CCn1cccc1Cn1c(CN2CCC(c3cccc(OCc4nc5c(F)cc(C#N)cc5s4)n3)CC2)nc2ccc(C(=O)O)cc21 [Compound 180] records EC50 below 60 nM.
Marked response: Condition not met

Exam item: Identify whether the compound CC1=NCC(Cn2c(CN3CCC(c4cccc(OCc5ccc(C#N)cc5F)n4)CC3)nc3ccc(C(=O)O)cc32)O1 (single isomer, unassigned) [Compound 176] records EC50 below 60 nM.
Marked response: Condition not met

Exam item: Identify whether the compound O=C(O)c1ccc2nc(CN3CCC(c4cccc(OCc5nc(C(F)(F)F)cs5)n4)CC3)n(C[C@@H]3CCO3)c2c1 [Compound 179] records EC50 below 60 nM.
Marked response: Condition met

Exam item: Identify whether the compound O=C(O)c1ccc2nc(CN3CCC(c4cccc(OCc5coc6c(C(F)(F)F)cc(Br)cc56)n4)CC3)n(C[C@@H]3CCO3)c2c1 [Compound 182] records EC50 below 60 nM.
Marked response: Condition met

Exam item: Identify whether the compound O=C(O)c1ccc2nc(CN3CCC(c4cccc(OCc5cc6cccc(C(F)(F)F)c6o5)n4)CC3)n(C[C@@H]3CCO3)c2c1 [Compound 177] records EC50 below 60 nM.
Marked response: Condition met

Exam item: Identify whether the compound CCn1cncc1Cn1c(CN2CC[C@@]3(c4nccc(N5CCc6cc(C#N)cc(F)c6C5)n4)C[C@H]3C2)nc2ccc(C(=O)O)cc21 [Compound 186-P1] records EC50 below 60 nM.
Marked response: Condition not met

Exam item: Identify whether the compound CCn1cncc1Cn1c(CN2CC[C@@]3(c4nccc(OCc5ccc(C#N)cc5F)n4)C[C@H]3C2)nc2ccc(C(=O)O)cc21 [Compound 185-P1] records EC50 below 60 nM.
Marked response: Condition met

Exam item: Identify whether the compound CCn1ccnc1Cn1c(CN2CCC(c3cccc(N4CCc5cc(C#N)cc(F)c5C4)n3)CC2)nc2ccc(C(=O)O)cc21 [Compound 171] records EC50 below 60 nM.
Marked response: Condition not met

Exam item: Identify whether the compound CCn1nncc1Cn1c(CN2CCC(c3cccc(OCc4nc5c(F)cc(C#N)cc5s4)n3)CC2)nc2ccc(C(=O)O)cc21 [Compound 178] records EC50 below 60 nM.
Marked response: Condition met
